Tested on: HepG2
testMethodNotes: cytotoxicity call (relative viability < 0.9)
runConditions: 10 µM
In all, about 39,000 compounds went through this assay and about 3,300 (8.5%) were called active. The full list was thinned out, with actives kept by preference.
Labels: active, inactive

compound=CCCCOC(=O)C1=CC(=O)CC(C)(C)O1 testedtarget=HepG2 classassignment=active
compound="CN1[C@@H]2CC[C@@H]1CC(N)C2 (stereo partly specified)" testedtarget=HepG2 classassignment=inactive
compound=CC[C@@]1(O)C[C@H](O[C@H]2C[C@H](N(C)C)[C@H](O)[C@H](C)O2)c2c(cc3c(c2O)C(=O)c2c(O)ccc(O)c2C3=O)[C@H]1C(=O)OC testedtarget=HepG2 classassignment=active
compound=N=C(N)/N=C(\N)Nc1ccc(Cl)cc1 testedtarget=HepG2 classassignment=inactive
compound="CC1CCC2(NC1)OC1CC3C4CC=C5CC(O)CCC5(C)C4CCC3(C)C1C2C (stereo unspecified)" testedtarget=HepG2 classassignment=inactive
compound="CNC(C)C(O)c1ccccc1.Cl (stereo unspecified)" testedtarget=HepG2 classassignment=inactive
compound=N[C@@H](Cc1ccccc1)c1ccc2c(c1)OCCO2 testedtarget=HepG2 classassignment=inactive
compound="CCC1(O)CC(O)c2c(cc3c(c2O)C(=O)c2c(O)ccc(O)c2C3=O)C1C(=O)OC (stereo unspecified)" testedtarget=HepG2 classassignment=inactive
compound=C[C@@H]1O[C@@H](OC(=O)Cc2ccccc2)[C@H](O)[C@H](O)[C@H]1O testedtarget=HepG2 classassignment=inactive
compound=COC(=O)[C@H]1[C@H]2CO[C@@H]1CN2 testedtarget=HepG2 classassignment=inactive
compound=O=C1CC[C@]2(CCCN(Cc3cnc[nH]3)C2)N1 testedtarget=HepG2 classassignment=inactive
